Below, each of the molecules is paired with its reported IC80 value.
Test system: Candida albicans
method.notes: Antifungal activity against Candida albicans ATCC 44859 after 24 hrs by microdilution method
Assay type: functional
conditions.used: ATCC 44859, 24 h
Write it as a number; the unit µM goes unstated.

Requested read-out: IC80. Entry: Cc1ccc(/C=C/C=C2C(=O)C=CC2=O)cc1 3.9

Note, next up: O=C1C=CC(=O)C1=Cc1cccs1 7.81

Note, next up: COc1ccc(C=C2C(=O)C=CC2=O)cc1 3.9

Note, next up: COc1ccc(/C=C/C=C2C(=O)C=CC2=O)cc1 125

Note, next up: COC(/C=C/c1ccccc1)=C1\C(=O)C=C(C)C1=O [CORUSCANONE A] 0.98

---
Requested read-out: IC80. Entry: O=C1C=CC(=O)C1=Cc1ccc(Br)cc1 7.81

Note, next up: O=C1C=CC(=O)C1=C/C=C/c1ccccc1 1.95

Note, next up: O=C1C=CC(=O)C1=Cc1ccccc1 1.95

----------
Test system: Pichia kudriavzevii
method.notes: Antifungal activity against Candida krusei ATCC 6258 after 24 hrs by microdilution method
Type: functional
conditions.used: ATCC 6258, 24 h
Tick satisfied if IC80 is 20 µM or greater. Tick not satisfied if IC80 is less than 20 µM.

Solved entries (count: 2):
Assess whether reported IC80 for O=C1C=CC(=O)C1=Cc1ccc(Br)cc1 sits at 20 µM or higher. not satisfied

Note, next up: OC(Cn1cncn1)(Cn1cncn1)c1ccc(F)cc1F satisfied

---
Assess whether reported IC80 for COc1ccc(C=C2C(=O)C=CC2=O)cc1 sits at 20 µM or higher. not satisfied

----------
Test system: Pichia kudriavzevii
method.notes: Antifungal activity against Candida krusei E28 after 24 hrs by microdilution method
Assay type: functional
conditions.used: E28, 24 h
measurement.name: IC80
Please give the number followed by its unit.

Worked set:
Requested read-out: IC80. Entry: O=C1C=CC(=O)C1=Cc1cccc(Br)c1 31.2 µM

Note, next up: O=C1C=CC(=O)C1=C/C=C/c1ccc(Cl)cc1 62.5 µM

Note, next up: COc1ccc(C=C2C(=O)C=CC2=O)cc1 3.9 µM

---
Requested read-out: IC80. Entry: COc1ccc(/C=C/C=C2C(=O)C=CC2=O)cc1 250 µM

----------
System: Candida albicans
method.notes: Antifungal activity against Candida albicans ATCC 90028 after 24 hrs by microdilution method
Assay type: functional
conditions.used: ATCC 90028, 24 h
measurement.name: IC80

Requested read-out: IC80. Entry: COc1ccc(C=C2C(=O)C=CC2=O)cc1 7.81 µM

Note, next up: CN(C)c1ccc(C=C2C(=O)C=CC2=O)cc1 31.2 µM

Note, next up: O=C1C=CC(=O)C1=Cc1ccc2ccccc2c1 15.6 µM

Note, next up: OC(Cn1cncn1)(Cn1cncn1)c1ccc(F)cc1F 0.8 µM

Note, next up: O=C1C=CC(=O)C1=Cc1ccc(Br)cc1 15.6 µM

Note, next up: O=C1C=CC(=O)C1=Cc1ccc(Cl)cc1 31.2 µM

Note, next up: COc1ccc(/C=C/C=C2C(=O)C=CC2=O)cc1 250 µM

Note, next up: O=C1C=CC(=O)C1=Cc1ccco1 15.6 µM

Note, next up: O=C1C=CC(=O)C1=C/C=C/c1ccccc1 15.6 µM

Note, next up: Cc1ccc(/C=C/C=C2C(=O)C=CC2=O)cc1 7.81 µM

API: the following record is the query input.
Requested read-out: IC80. Entry: O=C1C=CC(=O)C1=Cc1cccc(Br)c1 15.6 µM
